Items are presented alongside their recorded EC50.
- tgt: hGIPR (Homo sapiens)
- Sequence (P48546 22-466): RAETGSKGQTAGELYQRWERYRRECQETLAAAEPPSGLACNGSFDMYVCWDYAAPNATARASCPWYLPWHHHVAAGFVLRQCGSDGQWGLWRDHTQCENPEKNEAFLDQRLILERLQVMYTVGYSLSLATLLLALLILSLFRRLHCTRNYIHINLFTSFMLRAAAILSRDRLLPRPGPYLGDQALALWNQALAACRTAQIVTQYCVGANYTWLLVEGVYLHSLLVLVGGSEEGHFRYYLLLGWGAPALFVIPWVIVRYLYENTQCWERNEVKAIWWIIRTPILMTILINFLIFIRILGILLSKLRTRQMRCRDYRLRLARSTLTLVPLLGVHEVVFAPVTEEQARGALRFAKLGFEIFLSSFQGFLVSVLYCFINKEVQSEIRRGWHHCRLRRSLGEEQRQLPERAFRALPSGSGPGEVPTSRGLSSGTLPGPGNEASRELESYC
- assayInfo: Functional cAMP activity in the presence of 1% HSA
- Assay type: cell-based
- conditionSummary: read-out: cAMP Rel EC50, hGIPR
Starred links: 1 amine or outer side, 2 acyl side, 3 side chain; linkers in the order of their positions; H or OH if unused. Non-standard residues stand in square brackets, D forms with d. Groups on a side chain read outwards from the residue. No end group written: not given here. *: point of attachment. C20 diacid = O=C(O)CCCCCCCCCCCCCCCCCCC(=O)*; C18 diacid = O=C(O)CCCCCCCCCCCCCCCCC(=O)*; αMePhe(2-F) = C[C@](N)(Cc1ccccc1F)C(=O)O; γGlu = O=C(O)[C@H](CCC(=O)[*:2])N[*:1]; αMe4Pal = C[C@](N)(Cc1ccncc1)C(=O)O; αMeY = C[C@](N)(Cc1ccc(O)cc1)C(=O)O; Hyp = O=C(O)[C@@H]1C[C@@H](O)CN1; 4Pal = N[C@@H](Cc1ccncc1)C(=O)O; αMeL = CC(C)C[C@](C)(N)C(=O)O; αMeS = C[C@](N)(CO)C(=O)O; Orn = NCCC[C@H](N)C(=O)O; AEEA = NCCOCCOCC(=O)O; Aib = CC(C)(N)C(=O)O

Reference set, count: 3
H-Y[Aib]QGTFTSDFSK[αMeL]LDKK([AEEA-γGlu-C20 diacid])AQ[Aib]AFIEYLLAGGPSSGAPPPSGG-NH2 [Example 12] :: 30.2 nM
H-Y[Aib]QGTFTSD[4Pal]SQ[αMeL]LDKK([γGlu-γGlu-C18 diacid])AQ[αMe4Pal]AFIE[αMe4Pal]LIE[Aib]GPSSGEPPPSGEEE-NH2 [Example 1124] :: 12 nM
H-Y[Aib]QGTFTSD[4Pal]SQ[αMeL]LDKK([AEEA-γGlu-C18 diacid])AQ[Aib]AFIEYLLE[dA]GPSS[Aib]APPPSGT-NH2 [Example 824] :: 28.9 nM

Measured on hGIPR (Homo sapiens), H-Y[Aib]QGT[αMePhe(2-F)]TSD[4Pal][αMeS]I[αMeL]LD[Orn]K([γGlu-Glu-C18 diacid])AQ[Aib][Orn]FI[dE][αMeY]LSEGGPSSGEPPPSGTEE-NH2 [Example 566] has a documented EC50 of 30.1 nM

Measured on hGIPR (Homo sapiens), H-Y[Aib]QGT[αMePhe(2-F)]TSDYSKLLDKQAQK([AEEA-γGlu-C20 diacid])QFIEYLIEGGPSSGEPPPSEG-NH2 [Example 309] has a documented EC50 of 424 nM

Measured on hGIPR (Homo sapiens), Y[Aib]QGTFTSD[4Pal]SQ[αMeL]LDKK([AEEA-γGlu-C18 diacid])AQ[αMe4Pal]AFIEYLIE[Aib]GPSSGAPPPSGS-NH2 [Example 810] has a documented EC50 of 23.6 nM

Measured on hGIPR (Homo sapiens), Y[Aib]QGTFTSDFS[Orn][αMeL]LDKK([γGlu-γGlu-C18 diacid])AQ[Aib]AFIEYLLEGGPSSGAPPPSGT-NH2 [Example 260] has a documented EC50 of 12.4 nM

Measured on hGIPR (Homo sapiens), H-Y[Aib]QGTFTSDFS[Orn][αMeL]LDKK([AEEA-γGlu-C18 diacid])AQ[αMe4Pal]AFIE[αMeY]LIEGGPSSGAPPPSGS-NH2 [Example 845] has a documented EC50 of 23.3 nM

Measured on hGIPR (Homo sapiens), H-Y[Aib]QGTFTSDFS[Orn][αMeL]LDKK([AEEA-γGlu-C18 diacid])AQ[Aib]AFIEYLLEGGPSSGAP[Hyp]PGGS-NH2 [Example 236] has a documented EC50 of 24.8 nM
